Tested on: FAB9
measurement.description: qHTS profiling for inhibitors of Plasmodium falciparum proliferation (AID 504749); also: nearly all actives have a fitted effect of over 60% in size
experimental.parameters: P. falciparum in erythrocytes, SYBR Green DNA, 72 h; series mostly up to 28.7 µM
Inconclusive results are not listed. Activity calls are given as the source filed them. Calls follow the shape of the dose curve; as a rule, active = well fitted inhibition curve with a large enough effect; inconclusive = small, poorly fitted or top-dose-only effect; inactive = flat fitted curve, though single readings scatter.
Select the correct class. Options are active, inactive and nothing else.

// known answers, use as guide
compound=OB(O)O assigned_label=inactive
compound=CC/C=C\C/C=C\C/C=C\C/C=C\C/C=C\C/C=C\CCC(=O)O assigned_label=inactive
compound=O=c1[nH]c(=O)n([C@H]2C[C@H](O)[C@@H](CO)O2)cc1/C=C/Br assigned_label=inactive
compound=CC(=O)Oc1cccc(C(=O)O)c1OC(C)=O assigned_label=inactive

Hi, sorry to bother you, what did the test record for `O=P(O)(O)OC[C@H](O)CO` ? inactive

Which outcome was entered for the compound CC(C)[C@H](N)C(=O)OCC(CO)OCn1cnc2c(=O)[nH]c(N)nc21 (stereo not given in full) in this test? inactive

###

System: CP325
measurement.description: qHTS profiling for inhibitors of Plasmodium falciparum proliferation (AID 504749); also: nearly all actives have a fitted effect of over 60% in size
experimental.parameters: P. falciparum in erythrocytes, SYBR Green DNA, 72 h; series mostly up to 28.7 µM
Inconclusive results are not listed. The source made the active and inactive calls. Calls follow the shape of the dose curve; as a rule, active = well fitted inhibition curve with a large enough effect; inconclusive = small, poorly fitted or top-dose-only effect; inactive = flat fitted curve, though single readings scatter.
// classify into 1 = active, 0 = inactive

For O=C1CCC(c2ccccc2)(C2CCN(Cc3ccccc3)CC2)C(=O)N1 (stereo unspecified) , which call appears in the assay record? 0

###

System: CP185
measurement.description: qHTS profiling for inhibitors of Plasmodium falciparum proliferation (AID 504749); also: nearly all actives have a fitted effect of over 60% in size
experimental.parameters: P. falciparum in erythrocytes, SYBR Green DNA, 72 h; series mostly up to 28.7 µM
Inconclusive results are not listed. Calls of active or inactive are those of the source. Calls come from the whole dose curve; as a rule, active = well fitted inhibition curve with a large enough effect; inconclusive = small, poorly fitted or top-dose-only effect; inactive = flat fitted curve, though single readings scatter.
Log the outcome using a class from true for active, false for inactive

These solved cases illustrate the format of a correct answer.
compound=CCCOc1cc(N)ccc1C(=O)OCCN(CC)CC assigned_label=false
compound=CC(=O)Oc1cccc2c1C(=O)c1c(OC(C)=O)cc(C(=O)O)cc1C2=O assigned_label=false
compound="Cc1cccc(C)c1NC(=O)C1CCCCN1C (stereo not given)" assigned_label=false
compound=CN(C)c1ccc(C(=C2C=CC(=[N+](C)C)C=C2)c2c(O)c(S(=O)(=O)[O-])cc3cc(S(=O)(=O)O)ccc23)cc1 assigned_label=false
compound=C=CC[C@@H]1/C=C(\C)C[C@H](C)C[C@H](OC)[C@H]2O[C@@](O)(C(=O)C(=O)N3CCCC[C@H]3C(=O)O[C@H](/C(C)=C/[C@@H]3CC[C@@H](O)[C@H](OC)C3)[C@H](C)[C@@H](O)CC1=O)[C@H](C)C[C@@H]2OC assigned_label=true

For this compound, state the assay outcome: `CC(=O)Nc1ccc(OC(C)=O)cc1` false

Per the assay record, what outcome was assigned to NC(N)=NCC1COc2ccccc2O1 (stereo not given) ? false

Dear all, I need the recorded test outcome for CCOC(=O)C1=C(COCCN)NC(C)=C(C(=O)OC)C1c1ccccc1Cl (stereo not given) , thank you. false

So what was the verdict on CCCCCCCCCCCCCC(=O)OCC(COP(=O)([O-])OCC[N+](C)(C)C)OC(=O)CCCCCCCCCCCCC (stereo not given) in this test? false

Kindly provide the recorded test outcome for the following compound: `COc1ccc(/C=C/C(=O)O)cc1` false

###

Tested on: AS120
measurement.description: qHTS profiling for inhibitors of Plasmodium falciparum proliferation (AID 504749); also: nearly all actives have a fitted effect of over 60% in size
experimental.parameters: P. falciparum in erythrocytes, SYBR Green DNA, 72 h; series mostly up to 28.7 µM
Results filed as inconclusive are left out. The source made the active and inactive calls. The call rests on the fitted dose curve; in most records, active means well fitted inhibition curve with a large enough effect; inconclusive means small, poorly fitted or top-dose-only effect; inactive means flat fitted curve, though single readings scatter.
Mark one answer only. Choices: 1 (active), 0 (inactive)

Look over these answered cases.
compound=CCCCCCCCCCCCCCCCCC[N+](C)(C)CCC[Si](OC)(OC)OC assigned_label=0
compound="CN1CCCC(CN2c3ccccc3Sc3ccccc32)C1 (stereo not drawn)" assigned_label=1
compound=O=C1c2ccccc2C(=O)C1c1ccc(F)cc1 assigned_label=0
compound=Cc1ccc(S(=O)(=O)O)cc1C assigned_label=0
compound=Cc1cc(C(=O)NCCc2ccc(S(=O)(=O)NC(=O)NN3CCCCCC3)cc2)no1 assigned_label=0

Look up the recorded call for `N[C@H](CC(=O)O)C(=O)O` in this test. 0

Which outcome was entered for the compound `Nc1ccc(N=Nc2ccccc2)c(N)n1` in this test? 0

Please let me know the test result on file for `Cc1c(Cl)cccc1Nc1ncccc1C(=O)O` . 0

How was COc1cc(NCCCC(C)N)c2ncccc2c1 (stereo not drawn) classified in this test? 1

What classification did `CCCOC(=O)c1ccccc1O` end up with in this test? 0

Hi, sorry to bother you, what did the test record for `NC(N)=O` ? 0

Hi, sorry to bother you, what did the test record for `CCSc1ccc2c(c1)N(CCCN1CCN(C)CC1)c1ccccc1S2` ? 0

Which outcome was assigned to CC(C)NCC(O)COc1ccccc1-n1cccc1 (stereo not drawn) in this test? 0

###

measurement.description: Cell Viability - LYMP2-007 (AID 979)
experimental.parameters: LYMP2-007 lymphoblastoid cell viability; series mostly up to 92.2 µM
Records with an inconclusive call do not appear. Calls of active or inactive are those of the source. Calls follow the shape of the dose curve; as a rule, active = well fitted cell-killing curve with a large enough effect; inconclusive = small, poorly fitted or top-dose-only effect; inactive = flat fitted curve, though single readings scatter.
Valid outcomes are listed here; reply with one: Y (active), N (inactive)

compound_string=[O-][N+](=Nc1ccccc1)c1ccccc1 assigned_label=N
compound_string=CC/C=C\C/C=C\C/C=C\CCCCCCCC(=O)O assigned_label=Y
compound_string=CCCCO assigned_label=N

What outcome does the record of this test show for `c1ccc2ccccc2c1` ? N

// param item: `OCl` ; yields the recorded call N

Check the results log: what was the call for `CO/N=C(/C(=O)N[C@@H]1C(=O)N2C(C(=O)O)=C(COC(N)=O)CS[C@H]12)c1ccco1` ? N

Fill in: this test's call for `OB(O)O` is ___ N

# outcome recorded in this test, key = `CC[C@H]1OC(=O)[C@H](C)[C@@H](O[C@H]2C[C@@](C)(OC)[C@@H](O)[C@H](C)O2)[C@H](C)[C@@H](O[C@@H]2O[C@H](C)C[C@H](N(C)C)[C@H]2O)[C@](C)(O)C[C@@H](C)CN(C)[C@H](C)[C@@H](O)[C@]1(C)O` N

What outcome does the record of this test show for `Oc1ccc(/C=C/c2cc(O)cc(O)c2)cc1` ? N

Entry `Cc1ncc[nH]1` : call = ? N

What is the recorded call for this compound in the test? `Nc1ncnc2c1ncn2[C@H]1CC[C@@H](CO)O1` N

Tell me the assay call for `OCc1ccccc1` please. N

So what was the verdict on `C[C@H](CCC(=O)O)[C@H]1CC[C@H]2[C@@H]3CC[C@@H]4C[C@H](O)CC[C@]4(C)[C@H]3C[C@H](O)[C@]12C` in this test? N

Which outcome was entered for the compound `CC(C)(C)CC(C)(C)c1ccc(OCCO)cc1` in this test? N

###

System: CP325
measurement.description: qHTS profiling for inhibitors of Plasmodium falciparum proliferation (AID 504749); also: nearly all actives have a fitted effect of over 60% in size
experimental.parameters: P. falciparum in erythrocytes, SYBR Green DNA, 72 h; series mostly up to 28.7 µM
Results filed as inconclusive are left out. Calls of active or inactive are those of the source. The call rests on the fitted dose curve; in most records, active means well fitted inhibition curve with a large enough effect; inconclusive means small, poorly fitted or top-dose-only effect; inactive means flat fitted curve, though single readings scatter.
Reply using exactly one outcome from T (active), F (inactive)

Recorded results for 6 compounds are shown here.
compound=CC(C)=CCC/C(C)=C/CC/C(C)=C/CC/C=C(\C)CC/C=C(\C)CCC=C(C)C assigned_label=F
compound=C[C@]12CC[C@@H]3c4ccc(OC(=O)c5ccccc5)cc4CC[C@H]3[C@@H]1CC[C@@H]2O assigned_label=F
compound=Cn1cc(NC(=O)c2cc(NC(=O)c3cc(NC=O)cn3C)cn2C)cc1C(=O)NCCC(=N)N assigned_label=T
compound=O=C1c2ccccc2C(=O)C1c1ccc(Cl)cc1 assigned_label=F
compound=C[C@]12CCC(=O)C[C@@H]1CC[C@@H]1[C@@H]2CC[C@]2(C)C=CC[C@@H]12 assigned_label=F
compound="CCCCCCCCCCCC(=O)OCC(O)CO (centres undefined)" assigned_label=F

What did the test return for CC(C)[C@H](N)C(=O)OCC(CO)OCn1cnc2c(=O)[nH]c(N)nc21 (some centres undefined) ? F

What is the recorded call for this compound in the test? O=C1N=C2SCCN2C(=O)C1Cc1ccc(Cl)cc1 (centres undefined) F

Can you look up the reported call for `CN[C@@H]1[C@H](O[C@H]2[C@H](O[C@H]3[C@H](O)[C@@H](O)[C@H](N=C(N)N)[C@@H](O)[C@@H]3N=C(N)N)O[C@@H](C)[C@]2(O)C=O)O[C@@H](CO)[C@H](O)[C@H]1O` for me? F

# lookup: test call for `O=C(CCCN1CCC(C(=O)c2ccc(F)cc2)CC1)c1ccc(F)cc1` F

Write down the call the test reported for this compound. Item: `CC/C=C\C/C=C\C/C=C\C/C=C\C/C=C\CCCC(=O)O` F

For this compound, state the assay outcome: `F[Si-2](F)(F)(F)(F)F` F

Outcome? `NC(=O)Oc1ccc(Cc2ccccc2)cc1` F

Please indicate how the test categorized `Cc1cc(-c2ccc(N=Nc3c(S(=O)(=O)O)cc4cc(S(=O)(=O)O)cc(N)c4c3O)c(C)c2)ccc1N=Nc1c(S(=O)(=O)O)cc2cc(S(=O)(=O)O)cc(N)c2c1O` . F

Which outcome did this test record for the compound `C/C=C/C=C/C(=O)O` ? F

Write down the call the test reported for this compound. Item: `[O]=[Bi][O]C(=O)[O][Bi]=[O]` F

Status in this test for `C[C@H](CCC(=O)O)[C@H]1CC[C@H]2[C@@H]3CC[C@@H]4C[C@H](O)CC[C@]4(C)[C@H]3C[C@H](O)[C@]12C` ? F

Hi, do you know how `NCC[C@H](O)C(=O)N[C@@H]1C[C@H](N)[C@@H](O[C@H]2O[C@H](CN)CC[C@H]2N)[C@H](O)[C@H]1O[C@H]1O[C@H](CO)[C@@H](O)[C@H](N)[C@H]1O` came out in this test? F

Field: outcome | Entry: `NC(=S)N=Nc1ccc(NN=C(N)N)cc1` T
